Answer each item with its documented IC50.
# tgt: CDK4/CyclinD1 (h) (Homo sapiens, UniProt P11802)
# Sequence (P11802 whole entry): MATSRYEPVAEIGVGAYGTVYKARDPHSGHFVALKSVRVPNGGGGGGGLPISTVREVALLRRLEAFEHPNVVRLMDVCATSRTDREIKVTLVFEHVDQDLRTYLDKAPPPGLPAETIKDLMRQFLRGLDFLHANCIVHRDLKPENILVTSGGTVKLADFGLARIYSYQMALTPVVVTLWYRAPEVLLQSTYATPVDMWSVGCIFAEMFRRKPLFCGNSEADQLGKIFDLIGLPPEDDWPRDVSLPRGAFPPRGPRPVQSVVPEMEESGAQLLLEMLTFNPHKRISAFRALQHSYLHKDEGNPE
# Sequence (P24385 whole entry partner): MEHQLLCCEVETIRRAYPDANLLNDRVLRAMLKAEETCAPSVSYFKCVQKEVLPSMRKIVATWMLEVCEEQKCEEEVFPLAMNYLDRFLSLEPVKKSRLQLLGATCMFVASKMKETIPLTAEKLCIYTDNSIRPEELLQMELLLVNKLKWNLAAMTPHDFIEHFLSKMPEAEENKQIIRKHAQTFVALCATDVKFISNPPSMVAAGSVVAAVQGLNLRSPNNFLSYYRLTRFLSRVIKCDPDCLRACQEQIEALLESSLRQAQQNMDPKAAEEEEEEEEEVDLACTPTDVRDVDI
# testSummary: CDK4/CyclinD1 human kinase inhibition, SPA with GST-pRb substrate
# Type: biochemical
# testConditions: read-out: CDK4 pIC50 (converted)

Record excerpt, results attached:
{"compound": "O=C1NCc2ccc(cc2)-c2ccnc(n2)Nc2ccc(N3CCOCC3)c(c2)CN2CCC1CC2 [Compound 12]", "measurementLabel": "IC50", "result": "1.58 µM"}
{"compound": "CN(C)CCNC(=O)c1ccc2cc1CN1CCC[C@H]1C(=O)NCc1cccc(c1)-c1ccnc(n1)N2 [Compound 42]", "measurementLabel": "IC50", "result": "0.457 µM"}
{"compound": "CC(C)Nc1cc2cc(c1)Nc1nccc(n1)-c1ccc(cc1)CN(C)CCCNC(=O)CN1CCN(CC1)C2 [Compound 131]", "measurementLabel": "IC50", "result": "> 10 µM"}
{"compound": "CN1CCCNC(=O)[C@@H]2CCCN2Cc2cc(cc(N3CCOCC3)c2)Nc2nccc(n2)-c2ccc(cc2)C1 [Compound 16]", "measurementLabel": "IC50", "result": "> 10 µM"}
{"compound": "CC(C)Nc1cc2cc(c1)Nc1nccc(n1)-c1ccc(cc1)CN(C)CCCNC(=O)[C@@H]1CCCN1C2 [Compound 151]", "measurementLabel": "IC50", "result": "> 10 µM"}
{"compound": "COc1ccc2cc1CN(C)CCNC(=O)C1CCN(CC1)Cc1cc(cc(N3CCOCC3)c1)Nc1nccc-2n1 [Compound 77]", "measurementLabel": "IC50", "result": "> 10 µM"}
{"compound": "COc1ccc2cc1CNCCNC(=O)CN1CCN(CC1)Cc1cc(ccc1N1CCOCC1)Nc1nccc-2n1 [Compound 126]", "measurementLabel": "IC50", "result": "> 10 µM"}
{"compound": "O=C1CN2CCN(CC2)Cc2cc(ccc2N2CCOCC2)Nc2nccc(n2)-c2ccc(cc2)CN1 [Compound 194]", "measurementLabel": "IC50", "result": "1.7 µM"}
{"compound": "O=C1NCc2cccc(c2)-c2ccnc(n2)Nc2ccc(N3CCOCC3)c(c2)CN2C[C@@H](O)C[C@@H]12 [Compound 27]", "measurementLabel": "IC50", "result": "1.78 µM"}
{"compound": "COc1ccc2cc1CN(C)CCNC(=O)C1CCN(CC1)Cc1cccc(c1)Nc1nccc-2n1 [Compound 83]", "measurementLabel": "IC50", "result": "> 10 µM"}

Please report IC50 for every entry that follows.
1. COc1cc2cc(c1OC)CN1CCC[C@H]1C(=O)N(C)CCN(C)c1cc(ccn1)-c1ccnc(n1)N2 [Compound 17]
2. COc1ccc2cc1CN(C)CCNC(=O)CN1CCN(CC1)Cc1cc(cc(N3CCOCC3)c1)Nc1nccc-2n1 [Compound 145]
3. COc1ccc2cc1CNCCNC(=O)C1CCN(CC1)Cc1cc(ccc1N1CCOCC1)Nc1nccc-2n1 [Compound 64]

1: > 10 µM; 2: > 10 µM; 3: > 10 µM
